- targetOfAssay: T1, recombinant human CD70 (Flag-TNC-CD70) (human, UniProt P32970 39-193)
- T1 construct: extracellular domain; Captured by anti-Flag mAb in ELISA; as 'recombinant human CD70' immobilised on Biacore CM5 chips; TNC is for trimerisation; also called recombinant CD70; human recombinant CD70; not shown: Flag tag and TNC trimerisation domain
- T1 sequence (looked up): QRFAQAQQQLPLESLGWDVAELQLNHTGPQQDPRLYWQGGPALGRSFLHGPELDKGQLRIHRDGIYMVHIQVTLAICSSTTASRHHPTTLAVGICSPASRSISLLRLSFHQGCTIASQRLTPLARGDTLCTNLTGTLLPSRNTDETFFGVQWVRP
- methodSummary: Biacore; CD70 coated CM5 chip; Fab in periplasmic fraction
- Description: Phage eluted from rounds 3, 4 and 5 of selection were transfected into TG1 and plated clonally; individual clones were picked randomly for further analysis. Periplasmic fractions containing Fabs were prepared from IPTG induced small scale cultures the off rate of each Fab was determined using a CD70 coated CM5 chip in a Biacore binding assay. Clones with Fab having off rates similar to that of 27B3 were sequenced.
attributeMeasured: koff (s⁻¹)
Hi! Could you send only the number? It should be in s⁻¹, unit omitted.

binder	unitsLabel	measuredResult
35G3 Fab (Fab, V domains shown, Germlined 27B3 Fab, periplasmic fraction) VH: EVQLVESGGGLVQPGGSLRLSCAASGFTFSVYYMNWVRQAPGKGLEWVSDINNEGGTTYYADSVKGRFTISRDNSKNSLTLQMNSLKPEDTAVYYCARDAGYSNHVPIFDSWGQGTLVTVSS VL: QAVVTQEPSFSVSPGGTVTLTCGLKSGSVTSDNFPTWYQQTPGQAPRLLIYNTNSRHSGVPDRFSGSILGNKAALTIRGAQADDEAEYYCALFISNPSVEFGGGTQLTVLG	s⁻¹	0.00017

Data request: What measured koff goes with 39C3 Fab (Fab, V domains shown, Germlined 27B3 Fab, periplasmic fraction) VH: EVQLVASGGGLVQPGGSLRLSCAASGFTFSVYYMNWVRQAPGKGLEWVSDINNEGGTTYYADSVKGRFTISRDNSKNTLYLQMNSLRAEDTAVYYCARDAGYSNHVPIFDSWGQGTTVTVSS VL: QAVVTQEPSFSVSPGGTVTLTCGLKSGSVTSDNFPTWYQQTPGQAPRLLIYNTNTRHSGVPSRFSGSILGNKAALTITGAQADDESDYYCALFISNPSVEFGGGTQLTVLG ?
Data returned: 0.00025

Data request: Entry under review: 27B3 Fab (Fab, V domains shown, Llama-derived Fab; also called Fab 27B3) VH: EVQLVESGGGLVQPGGSLRLSCAASGFTFSVYYMNWVRQAPGKGLEWVSDINNEGGTTYYADSVKGRFTISRDNAKNTLTLQMNSLKPEDTALYYCVRDAGYSNHVPIFDSWGQGTQVIVAS VL: QAVVTQEPSLTVSPGGTVTLTCGLKSGSVTSTNFPTWYQQTPGQAPRLLIYNTNTRHSGVPSRFSGSISENKAALTITGAQPEDEAEYFCALFISNPSVEFGGGTQLTVLS . Reported koff?
Data returned: 0.00014
